Tested on: SW-620
procedure_details: NCI tumour cell line growth inhibition, 48 h
Activity calls are given as the source filed them. Rule as the data show it: active = GI50 up to about 1.1 µM and inactive = higher.
Listing of recorded GI50 by entry.

{"molecule": "CN(C)C(=S)SN(C)C(=O)Nc1ccccc1", "GI50": "7.28 µM (inactive)"}
{"molecule": "COc1ccc(O)c(/C=N\\Nc2ccccc2)c1", "GI50": "5.41 µM (inactive)"}
{"molecule": "Cc1c2cc[n+](C)cc2c(C)c2c1[nH]c1ccc(O)c(OCC(F)(F)F)c12", "GI50": "6.67 µM (inactive)"}
{"molecule": "CC12CCC(CC1=O)C2(C)CCC(N)=O (centres undefined)", "GI50": "> 100 µM (inactive)"}
{"molecule": "CCCCCCCC(=O)NC(C)(C)C(=O)NCC(=O)NC(CC(C)C)C(=O)NC(C)(C)C(=O)NCC(=O)NCC(=O)NC(CC(C)C)C(=O)NC(C)(C)C(=O)NCC(=O)NC(C(=O)NC(CO)CC(C)C)C(C)CC (centres undefined)", "GI50": "4.02 µM (inactive)"}
{"molecule": "CCN1C2=NC(=O)N(C)C(=O)C2(Cl)C(C(SC)S(=O)(=O)c2ccc(C)cc2)c2ccccc21 (centres undefined)", "GI50": "31.6 µM (inactive)"}
{"molecule": "CCOC(=O)/C=C/CC(C)(C)CCOC(C)=O", "GI50": "> 10 µM (inactive)"}
{"molecule": "O=C1CSC(c2cccc(Cl)c2)N1c1c(O)c(Cl)cc(Br)c1Cl (centres undefined)", "GI50": "17.2 µM (inactive)"}
{"molecule": "COC1=CC(=O)C2(C=C1OC)OC[C@H]1Oc3c(ccc4c3C=CC(C)(C)O4)C(=O)[C@H]12 (some centres undefined)", "GI50": "35 µM (inactive)"}
